Test system: Candida albicans
Test: Synergetic antifungal activity against fluconazole-resistant Candida albicans 103 assessed as fractional inhibitory concentration index in presence of fluconazole by checker board microdilution assay
Format: functional
Listed here: items and their measured fractional inhibitory concentration index (FICI).
Returns: the value as a bare number; no unit string appended.

Request: Annotate the compound CNC(=O)c1noc(-c2cc(-c3ccc(C)cc3)c(O)cc2O)c1-c1ccc(CN2CCOCC2)cc1 with its measured fractional inhibitory concentration index (FICI).
Result: 0.047

Request: Check the records and state fractional inhibitory concentration index (FICI) for CCNC(=O)c1noc(-c2cc(-c3ccc(C)cc3)c(O)cc2O)c1-c1ccc(CN2CCOCC2)cc1
Result: 0.035

Request: Please supply the value of reported fractional inhibitory concentration index (FICI) for the item CNC(=O)c1noc(-c2cc(-c3ccc(C)cc3)c(O)cc2O)c1-c1ccc(CN2CCCCC2)cc1
Result: 0.039

Request: Query fractional inhibitory concentration index (FICI) for CCNC(=O)c1noc(-c2cc(-c3ccc(C)cc3)c(O)cc2O)c1-c1ccc(CN2CCCCC2)cc1
Result: 0.039
